testName: NCI Yeast Anticancer Drug Screen. Data for the rad50EPP+ strain (AID 151);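 note: 0% = growth of vehicle-treated control cultures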
conditionParameters: S. cerevisiae rad50 mutant strain, at 1.2 µM, stronger effect = higher value
This is part of a sample that, as a whole, favours compounds with a hit. Of some 79,000 tested, about 15% had one in any assay.
growth inhibition values for the molecules below.
parameter: growth inhibition (%)

>>> valuemeasured("CCCCCCCCCCCCCCN")
-9
>>> valuemeasured("O=C(O)C(=Cc1ccc(-c2ccccc2)cc1)C(=O)O")
-1
>>> valuemeasured("CCCCN(CCCC)c1ccc(N=Nc2ccc(S(=O)(=O)O)cc2)cc1")
10
>>> valuemeasured("COC(=O)C(Cl)(Cl)N=Nc1c(Cl)cc(Cl)c(C)c1Cl")
12
>>> valuemeasured("Cc1ccnc2c(O)cccc12")
-1
>>> valuemeasured("Cc1c2cc[n+](CCO)cc2c(C)c2c1[nH]c1ccc(O)cc12")
25
>>> valuemeasured("O=C1Nc2ccc(Br)cc2C1=Nc1ccc(Cl)cc1")
-45
>>> valuemeasured("NC(=S)N1N=C2c3ccccc3CC[C@@H]2[C@@H]1c1ccccc1")
-31
>>> valuemeasured("COc1ccc2nc3cccc([N+](=O)[O-])c3c(NCCCCCC(=O)O)c2c1")
38
>>> valuemeasured("O=C(CCSC1=NCCCN1)c1ccc(F)cc1")
-75
>>> valuemeasured("CC(C)(CN1CCCCC1)C(=O)/C=C/c1c(Cl)cccc1Cl")
-2
>>> valuemeasured("CCCCCCCC/C=C\\CCCCCCCCN")
17

----------
growth inhibition values for the compounds below.
testName: NCI Yeast Anticancer Drug Screen. Data for the wt1 strain (AID 149);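 note: 0% = growth of vehicle-treated wt1 cultures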
conditionParameters: S. cerevisiae wt1 strain (SPY 50644) growth inhibition; at 3.7 µM; stronger effect = higher value
Compounds without any hit were thinned out: in the full panel of roughly 79,000, 15% have a hit.
parameter: growth inhibition (%)

>>> valuemeasured("NC(N)=NC(N)=Nc1ccccc1 (tested in a mixture with another compound)")
-1
>>> valuemeasured("NC(=S)N/N=C1\\c2ccccc2CCC1CCC1(O)CCc2ccccc2C1=O (stereo not given)")
24
>>> valuemeasured("C/C1=C/C2OC(=O)C3(C)C2C(CC2(C)OC1=CC2=O)OC3(O)C(C)C (stereo not given)")
-29
>>> valuemeasured("COc1cccc(/C=C2\\S/C(=N/Nc3nc(-c4ccc([N+](=O)[O-])cc4)cs3)NC2=O)c1O")
7
>>> valuemeasured("Cc1cc(C)c2[s+]snc2c1")
1
>>> valuemeasured("C=CC(C)(C)N1C(=O)C(C(C)=O)=C(O)C1Cc1c[nH]c2ccccc12 (stereo not given)")
5
>>> valuemeasured("CC(CC/C(=N/O)c1ccccc1)(CC/C(=N\\O)c1ccccc1)[N+](=O)[O-] (stereo not given)")
-5
>>> valuemeasured("O=C1Nc2ccc(Br)cc2C1=Nc1cccnc1")
-20
>>> valuemeasured("O=[N+]([O-])c1cc(Cl)ccc1S(=O)(=O)c1ccc(Cl)cc1[N+](=O)[O-]")
-19
>>> valuemeasured("CCCCOc1ccc2nc(C)cc(N=[N+]=[N-])c2c1")
10

----------
testName: NCI Yeast Anticancer Drug Screen. Data for the sgs1 strain (AID 173);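 note: 0% = growth of vehicle-only control cultures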
conditionParameters: S. cerevisiae sgs1 mutant, at 1.2 µM
About 79,000 compounds went through this panel and 15% of them were active in at least one assay; those are over-represented in the sample as a whole. Active and inactive are the calls of the source. No stated cut-off is given here; in the data, active means growth inhibition above about 70%; inactive means the rest.
Outcome codes: 1.0 (active), 0.0 (inactive)

>>> classlabel("CC/C(=C(\\c1ccccc1)c1ccc(OCC[N+](C)(C)C)cc1)c1ccccc1")
0.0
>>> classlabel("O=C(O)c1cc2c(cc1S(=O)(=O)O)C1C(C3C2C2(Cl)C(Cl)=C(Cl)C3(Cl)C2(Cl)Cl)C2(Cl)C(Cl)=C(Cl)C1(Cl)C2(Cl)Cl (stereo not drawn)")
0.0
>>> classlabel("Cc1cccc(C)c1NC(=O)CCC(=O)C(C)C(=O)c1ccc(O)cc1 (stereo not drawn)")
0.0
>>> classlabel("N#C/C(=C\\NC(=S)Nc1ccc(S(N)(=O)=O)cc1)C(=O)c1ccc2ccccc2c1")
0.0
>>> classlabel("O=C1C(=C2CCCC2)CCC1CN1CCCCC1 (stereo not drawn)")
0.0
>>> classlabel("CC1=C(C)C(=O)C2=C(OCCO2)C1=O")
0.0
>>> classlabel("ClCCCOc1c(Cl)cc(Cl)cc1Cl")
0.0
>>> classlabel("S=C1N(c2ccc(Cl)cc2)C2=C(N=Nc3ccccc3)C(=Nc3ccccc3S2)N1c1ccccn1")
0.0
>>> classlabel("COC(=O)c1cnc(Cl)c([N+](=O)[O-])c1")
0.0
>>> classlabel("CC(=O)O/N=C1C=C/C(=C(/C#N)c2ccccc2)C=C/1C")
0.0
>>> classlabel("O=[N+]([O-])/C=C/c1cc2ccc3ccccc3c2[nH]1")
0.0
>>> classlabel("c1ccc2c(c1)ccn2CCc1c[nH]c2ccccc12")
0.0
>>> classlabel("O=C1c2ccccc2C(=O)c2c(O)c(NCCNCCO)cc(O)c21")
0.0
>>> classlabel("COc1ccccc1/C=C\\C(=O)C1COCN1 (stereo not drawn)")
0.0
>>> classlabel("NC(CS)C(=O)NCCNc1ccc(NCCNC(=O)C(N)CS)c2c1C(=O)c1c(O)ccc(O)c1C2=O (stereo not drawn)")
0.0
>>> classlabel("Cc1oc2ccccc2c(=O)c1Cn1nnc2ccccc21")
0.0
>>> classlabel("NC(=S)N1N=C2c3ccccc3CC[C@H]2[C@@H]1c1ccc(Cl)cc1")
0.0
>>> classlabel("Nc1ccc(/C=C/c2ccc3cccnc3c2)cc1")
0.0
>>> classlabel("Cc1c(Cl)c(C)c(Cl)c(O)c1Cl")
0.0
>>> classlabel("CCCCCCCCCCCCCCN")
0.0
>>> classlabel("NC(CCCCCCCCCCCCC(N)C(=O)c1ccccc1)C(=O)c1ccccc1 (stereo not drawn)")
0.0
>>> classlabel("C[N+](C)([O-])CCCNc1c2ccccc2nc2cccc([N+](=O)[O-])c12")
1.0
>>> classlabel("O=S1(=O)CCC2=CC(C(F)(F)F)=CC(C(F)(F)F)=CN21")
0.0

----------
growth inhibition values for the molecules below.
testName: NCI Yeast Anticancer Drug Screen. Data for the mgt1 strain (AID 153)
conditionParameters: S. cerevisiae mgt1 mutant growth inhibition; at 3.7 µM; stronger effect = higher value
About 79,000 compounds went through this panel and 15% of them were active in at least one assay; those are over-represented in the sample as a whole.
parameter: growth inhibition (%)

>>> valuemeasured("Cc1ccc(NC(=O)CCC(=O)C(C)C(=O)c2ccccc2)c(C)c1 (centres undefined)")
5
>>> valuemeasured("O=C1c2ccccc2-c2cc3ccccc3c(=O)n21")
2
>>> valuemeasured("CC(C)(CN1CCCCC1)C(=O)/C=C/c1c(Cl)cccc1Cl")
37
>>> valuemeasured("O=NC1c2cccc3cccc(c23)C1N=O (centres undefined)")
12
>>> valuemeasured("Oc1ccc(N=Nc2ccc(Cl)cc2)cc1")
4
>>> valuemeasured("O=C1CC(C(O)(C(F)(F)F)C(F)(F)Cl)CCC1C(O)(C(F)(F)F)C(F)(F)Cl (centres undefined)")
65
>>> valuemeasured("Cc1ccc(NC(Nc2ccc(C)cc2C)=C(C(Cl)=C(Cl)Cl)[N+](=O)[O-])c(C)c1")
4
>>> valuemeasured("O=S1(=O)CCC2=CC(C(F)(F)F)=CC(C(F)(F)F)=CN21")
27
>>> valuemeasured("O=C(NC(N1CCN(c2cc3c(cc2F)c(=O)c(C(=O)O)cn3C2CC2)CC1)(C(F)(F)F)C(F)(F)F)c1ccccc1")
-2

----------
testName: NCI Yeast Anticancer Drug Screen. Data for the rad52 strain (AID 147);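 note: 0% = growth of vehicle-treated control cultures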
conditionParameters: S. cerevisiae rad52 mutant growth inhibition; at 11.0 µM; stronger effect = higher value
The panel holds about 79,000 compounds, 15% with a hit somewhere; the sample as a whole holds those more often.
parameter: growth inhibition (%)

>>> valuemeasured("O=C(/C=C/c1ccsc1)c1cccs1")
-9
>>> valuemeasured("O=C(Oc1ccc([N+](=O)[O-])cc1)c1ccc([N+](=O)[O-])cc1")
1
>>> valuemeasured("COc1cccc(C(NC2=NCCC=N2)c2cc3c(cc2O)OCO3)c1O (stereo not drawn)")
21
>>> valuemeasured("CC(C)(N=Nc1ccc(Cl)cc1)[N+](=O)[O-]")
90
>>> valuemeasured("COc1ccc(C(C)c2cc3c(cc2OC(C)O)OCO3)cc1 (stereo not drawn)")
-1
>>> valuemeasured("COc1cc(C(=O)C=O)cc(OC)c1OC")
1
>>> valuemeasured("CCCC/C=C1\\CCC(CN2CCCC2)C1=O (stereo not drawn)")
-10
>>> valuemeasured("CCC(/C=C/c1ccccc1)=N\\Nc1ccc(Cl)c(Cl)c1")
17
>>> valuemeasured("Fc1ccc(Nc2ccc3ccccc3c2)cc1")
-3
>>> valuemeasured("CC(C)NCCCNc1c2ccccc2nc2cccc([N+](=O)[O-])c12")
97
>>> valuemeasured("CN1CCN(C(=O)c2cccc3cccc(C(=O)O)c23)CC1")
7
>>> valuemeasured("COc1ccc(C(OCC2OC(n3cnc4c(=O)n(Cc5ccccc5[N+](=O)[O-])nnc43)C(O)C2O)(c2ccccc2)c2ccc(OC)cc2)cc1 (stereo not drawn)")
18
>>> valuemeasured("COc1cc(NCCCCNCC(C)(C)C)c2ncccc2c1")
8
